# Test Target: Probable periplasmic serine endoprotease DegP-like (Chlamydia trachomatis, UniProt P18584)
# Assay Details: Inhibition of recombinant Chlamydia trachomatis HtrA serine protease using MeOCoum-ENLHLPLPI1F-D as substrate measured after 30 mins
Examples of molecules with documented IC50 follow.
API: value field is a number in µM; no unit string.

The examples below pair each entry with its known result.
>>> numeric_result("CC(C)C(NC(=O)[C@@H]1CCCN1C(=O)[C@@H](NC(=O)OC(C)(C)C)C(C)(C)C)P(=O)(Oc1ccccc1)Oc1ccccc1 (stereo partly specified)")
15.9
>>> numeric_result("CC(C)C(NC(=O)[C@@H]1C[C@@H](OC(=O)CCN)CN1C(=O)[C@@H](NC(=O)OC(C)(C)C)C(C)(C)C)P(=O)(Oc1ccccc1)Oc1ccccc1 (mixture of isomers)")
15.3
>>> numeric_result("CC(C)C(NC(=O)[C@@H]1C[C@H](n2nncc2C(C)(C)O)CN1C(=O)[C@@H](NC(=O)OC(C)(C)C)C(C)(C)C)P(=O)(Oc1ccccc1)Oc1ccccc1 (mixture of isomers)")
30.3
>>> numeric_result("CC(C)C(NC(=O)[C@@H]1CCCCN1C(=O)[C@@H](NC(=O)OC(C)(C)C)C(C)(C)C)P(=O)(Oc1ccccc1)Oc1ccccc1 (mixture of isomers)")
81.8
>>> numeric_result("CC(C)C(NC(=O)[C@@H]1C[C@H](n2nnc(O)c2O)CN1C(=O)[C@@H](NC(=O)OC(C)(C)C)C(C)(C)C)P(=O)(Oc1ccccc1)Oc1ccccc1 (mixture of isomers)")
23

Now examine the next entry.
Recall the reported IC50 of CC(C)C(NC(=O)[C@@H]1C[C@@H](OC(=O)CN)CN1C(=O)[C@@H](NC(=O)OC(C)(C)C)C(C)(C)C)P(=O)(Oc1ccccc1)Oc1ccccc1 (mixture of isomers) on Probable periplasmic serine endoprotease DegP-like (Chlamydia trachomatis, UniProt P18584) and write it down.
13.9

----------
# Test Target: Probable periplasmic serine endoprotease DegP-like (Chlamydia trachomatis, UniProt P18584)
# Assay Details: Inhibition of recombinant Chlamydia trachomatis HtrA serine protease using MeOCoum-ENLHLPLPI1F-D as substrate measured after 30 mins
Readout Name: pIC50
Notebook: values listed as pIC50 are -log10 of the concentration (mol/L).

The examples below pair each entry with its known result.
>>> numeric_result("CC(C)C(NC(=O)[C@@H]1C[C@@H](n2cc(C(C)(C)O)nn2)CN1C(=O)[C@@H](NC(=O)OC(C)(C)C)C(C)(C)C)P(=O)(Oc1ccccc1)Oc1ccccc1 (mixture of isomers)")
4.14
>>> numeric_result("CC(C)C(NC(=O)[C@@H]1CCCN1C(=O)[C@@H](NC(=O)OC(C)(C)C)C(C)C)P(=O)(Oc1ccccc1)Oc1ccccc1 (some centres undefined)")
4.66
>>> numeric_result("CC(C)C(NC(=O)[C@@H]1C[C@@H](n2cc(CO)nn2)CN1C(=O)[C@@H](NC(=O)OC(C)(C)C)C(C)(C)C)P(=O)(Oc1ccccc1)Oc1ccccc1 (mixture of isomers)")
4.10
>>> numeric_result("CC(C)C(NC(=O)[C@@H]1C[C@@H](n2nncc2C(C)(C)O)CN1C(=O)[C@@H](NC(=O)OC(C)(C)C)C(C)(C)C)P(=O)(Oc1ccccc1)Oc1ccccc1 (mixture of isomers)")
4.02
>>> numeric_result("CC(=O)O[C@@H]1C[C@@H](C(=O)NC(C(C)C)P(=O)(Oc2ccccc2)Oc2ccccc2)N(C(=O)[C@@H](NC(=O)OC(C)(C)C)C(C)(C)C)C1 (mixture of isomers)")
5.41

Now examine the next entry.
Query pIC50 for CC(C)C(NC(=O)[C@@H]1C[C@@H](O)CN1C(=O)[C@@H](NC(=O)OC(C)(C)C)C(C)(C)C)P(=O)(Oc1ccccc1)Oc1ccccc1 (mixture of isomers)
4.85

----------
Examples of compounds with documented IC50 follow.
# Test Target: Probable periplasmic serine endoprotease DegP-like (Chlamydia trachomatis)
# Sequence (P18584 whole entry): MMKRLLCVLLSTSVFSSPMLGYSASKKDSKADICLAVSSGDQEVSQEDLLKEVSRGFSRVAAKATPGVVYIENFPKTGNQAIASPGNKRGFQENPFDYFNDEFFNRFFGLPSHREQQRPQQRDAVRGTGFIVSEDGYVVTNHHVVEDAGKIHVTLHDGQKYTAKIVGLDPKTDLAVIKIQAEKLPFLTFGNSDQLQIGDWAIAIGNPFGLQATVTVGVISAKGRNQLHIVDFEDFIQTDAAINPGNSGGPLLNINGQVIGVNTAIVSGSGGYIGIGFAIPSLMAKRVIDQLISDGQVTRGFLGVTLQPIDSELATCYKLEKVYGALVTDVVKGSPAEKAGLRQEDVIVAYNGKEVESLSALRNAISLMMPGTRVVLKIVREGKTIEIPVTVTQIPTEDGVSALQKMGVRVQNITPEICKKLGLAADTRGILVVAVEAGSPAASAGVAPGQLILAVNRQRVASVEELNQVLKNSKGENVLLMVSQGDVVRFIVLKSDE
# Assay Details: Inhibition of recombinant Chlamydia trachomatis HtrA serine protease using MeOCoum-ENLHLPLPI1F-D as substrate measured after 30 mins
API: value field is a number in µM; no unit string.

The examples below pair each entry with its known result.
>>> numeric_result("CC(C)C(NC(=O)[C@@H]1C[C@@H](c2ccccc2)CN1C(=O)[C@@H](NC(=O)OC(C)(C)C)C(C)(C)C)P(=O)(Oc1ccccc1)Oc1ccccc1 (mixture of isomers)")
59.5
>>> numeric_result("CC(C)C(NC(=O)[C@@H]1C[C@H](O)CN1C(=O)[C@@H](NC(=O)OC(C)(C)C)C(C)(C)C)P(=O)(Oc1ccccc1)Oc1ccccc1 (mixture of isomers)")
48.7

Now examine the next entry.
Query IC50 for CC(C)C(NC(=O)[C@@H]1C[C@@H](C2CCCCC2)CN1C(=O)[C@@H](NC(=O)OC(C)(C)C)C(C)(C)C)P(=O)(Oc1ccccc1)Oc1ccccc1 (mixture of isomers)
163
